Target: UniProt P04626
Experiment: Detection of phosphorylated ERBB2 (pERBB2) by ELISA in BT-474 cells
Format: cell-based
Settings: four hours incubation with compound
Structures can show the parent of a compound that is named as a salt.
IC50 for assorted molecules
The answer is to be given in nM; state only the numeric part.

Reference set, count: 2
molecule: Cc1cc(Nc2ncnc3cc4c(nc23)N2CCN(C(=O)/C=C/CN3CCC3)C(CO4)C2)ccc1Oc1ccn2ncnc2c1 (stereo in doubt)
measuredResult: 41.1
//
molecule: CC#CC(=O)N1CCN2CC1COc1cc3ncnc(Nc4ccc(Oc5ccn6ncnc6c5)c(C)c4)c3nc12 (stereo in doubt)
measuredResult: 62.8

Reported IC50 of Cc1cc(Nc2ncnc3cc4c(nc23)N2CCN(C(=O)/C=C/CN(C)C)C(CO4)C2)ccc1Oc1ccc2c(c1)ncn2C (stereo in doubt) : 34.2

Reported IC50 of Cc1cc(Nc2ncnc3cc4c(nc23)N2CCN(C(=O)/C=C/CN(C)C)C(CO4)C2)c(F)cc1Oc1ccn2ncnc2c1 (stereo in doubt) : 8.38

Reported IC50 of CN(C)C/C=C/C(=O)N1CCN2C[C@H]1COc1cc3ncnc(Nc4cc(F)c(Oc5ccn6ncnc6c5)cc4F)c3nc12 : 10.8

Reported IC50 of Cc1cc(Nc2ncnc3cc4c(nc23)N2CCN(C(=O)/C=C/[C@H](C)N(C)C)C(CO4)C2)ccc1Oc1ccn2ncnc2c1 (stereo in doubt) : 10.6

Reported IC50 of [2H]C([2H])([2H])N(C/C=C/C(=O)N1CCN2CC1COc1cc3ncnc(Nc4ccc(Oc5ccn6ncnc6c5)c(C)c4)c3nc12)C([2H])([2H])[2H] (stereo in doubt) : 9.92

Reported IC50 of Cc1cc(Nc2ncnc3cc4c(nc23)N2CCN(C(=O)/C=C/CN(C)C)C(CO4)C2)ccc1Oc1cccnc1 (stereo in doubt) : 5.54

Reported IC50 of CN(C)C/C=C/C(=O)N1CCN2CC1COc1cc3ncnc(Nc4ccc(Oc5ccn6ncnc6c5)cc4)c3nc12 (stereo in doubt) : 18.5

Reported IC50 of Cc1ccc(Oc2ccc(Nc3ncnc4cc5c(nc34)N3CCN(C(=O)/C=C/CN(C)C)C(CO5)C3)cc2C)cn1 (stereo in doubt) : 25

Reported IC50 of C=CC(=O)N1CCN2CC1COc1cc3ncnc(Nc4ccc(Oc5ccn6ncnc6c5)c(C)c4)c3cc12 (stereo in doubt) [Compound 5] : 1200

Reported IC50 of Cc1cc(Nc2ncnc3cc4c(cc23)N2CCN(C(=O)/C=C/CN(C)C)C(CO4)C2)ccc1Oc1ccc2c(c1)ncn2C (stereo in doubt) : 41.3

Reported IC50 of CNC/C=C/C(=O)N1CCN2CC1COc1cc3ncnc(Nc4ccc(Oc5ccn6ncnc6c5)c(C)c4)c3nc12 (stereo in doubt) [Compound 37, formate] : 28

Reported IC50 of C=CC(=O)N1CCN2CC1COc1cc3ncnc(Nc4ccc(Oc5ccc6c(c5)ncn6C)c(C)c4)c3cc12 (stereo in doubt) : 28.3

Reported IC50 of Cc1cc(Nc2ncnc3cc4c(nc23)N2CCN(C(=O)/C=C/CN(C)C)C(CCO4)C2)ccc1Oc1ccn2ncnc2c1 (stereo not drawn) : 635

Reported IC50 of C=CC(=O)N1CCN2CC1COc1cc3ncnc(Nc4ccc(Oc5ccc(CC)nc5)c(C)c4)c3nc12 (stereo in doubt) : 70

Reported IC50 of CN(C)C/C=C/C(=O)N1CCN2CC1COc1cc3ncnc(Nc4ccc(Oc5ccn6ncnc6c5)c(F)c4)c3nc12 (stereo in doubt) : 8.92

Reported IC50 of CN(C)C/C=C/C(=O)N1CCN2CC1COc1cc3ncnc(Nc4ccc(Oc5ccn6ncnc6c5)c(Cl)c4)c3nc12 (stereo in doubt) : 8.41

Reported IC50 of Cc1cc(Nc2ncnc3cc4c(nc23)N2CCN(C(=O)/C=C/CN(C)C)C(CO4)C2)ccc1Oc1ccn2ccnc2c1 (stereo in doubt) : 17.7

----------
Biological target: UniProt P00533
Sequence (P00533 25-1210): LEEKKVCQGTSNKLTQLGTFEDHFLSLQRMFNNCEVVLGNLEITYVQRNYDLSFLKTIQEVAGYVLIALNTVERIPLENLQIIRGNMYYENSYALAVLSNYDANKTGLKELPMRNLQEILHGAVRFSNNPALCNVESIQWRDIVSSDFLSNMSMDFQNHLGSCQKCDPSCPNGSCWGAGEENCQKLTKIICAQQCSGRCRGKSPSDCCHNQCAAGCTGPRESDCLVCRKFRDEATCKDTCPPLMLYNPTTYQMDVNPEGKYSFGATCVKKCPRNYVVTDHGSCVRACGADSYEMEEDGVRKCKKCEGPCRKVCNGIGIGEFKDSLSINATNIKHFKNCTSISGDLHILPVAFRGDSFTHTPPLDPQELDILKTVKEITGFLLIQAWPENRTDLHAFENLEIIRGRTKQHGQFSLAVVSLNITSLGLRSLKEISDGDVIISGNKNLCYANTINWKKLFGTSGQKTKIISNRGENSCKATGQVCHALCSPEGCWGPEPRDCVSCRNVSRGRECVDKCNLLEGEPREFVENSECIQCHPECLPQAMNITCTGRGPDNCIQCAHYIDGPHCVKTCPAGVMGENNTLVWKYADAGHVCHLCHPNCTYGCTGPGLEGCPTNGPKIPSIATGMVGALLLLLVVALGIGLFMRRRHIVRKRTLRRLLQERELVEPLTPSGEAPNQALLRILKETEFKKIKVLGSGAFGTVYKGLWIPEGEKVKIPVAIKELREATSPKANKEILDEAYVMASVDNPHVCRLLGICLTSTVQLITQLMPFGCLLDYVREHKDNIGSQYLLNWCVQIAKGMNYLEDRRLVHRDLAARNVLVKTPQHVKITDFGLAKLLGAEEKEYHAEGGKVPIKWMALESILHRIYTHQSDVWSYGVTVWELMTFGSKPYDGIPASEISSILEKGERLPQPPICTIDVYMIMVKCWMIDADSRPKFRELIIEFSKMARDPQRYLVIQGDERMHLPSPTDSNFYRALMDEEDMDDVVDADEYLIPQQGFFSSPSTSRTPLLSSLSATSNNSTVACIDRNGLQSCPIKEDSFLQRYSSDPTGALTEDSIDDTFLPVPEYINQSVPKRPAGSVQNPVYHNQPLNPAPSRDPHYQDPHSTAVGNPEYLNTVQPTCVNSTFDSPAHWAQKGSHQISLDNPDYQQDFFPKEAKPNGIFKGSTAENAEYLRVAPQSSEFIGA
Assay: Detection of phosphorylated EGFR (pEGFR) by AlphaLISA in A431 cells
Settings: A431 cells (10% FBS), 4 hours incubation, EGF 30 ng/mL for 10 minutes
attributeMeasured: pIC50
Please treat pIC50 as minus the base-10 logarithm of the molar concentration.

Reference set, count: 2
compound: CN(C)C/C=C/C(=O)N1CCN2CC1COc1cc3ncnc(Nc4ccc(Oc5ccn6ncnc6c5)cc4F)c3nc12 (stereo in doubt) [Compound 42]
attributeMeasured: pIC50
measuredResult: 5.71

compound: [2H]C([2H])([2H])N(C/C=C/C(=O)N1CCN2CC1COc1cc3ncnc(Nc4cc(C)c(Oc5ccn6ncnc6c5)cc4F)c3nc12)C([2H])([2H])[2H] (stereo in doubt) [Compound 46]
attributeMeasured: pIC50
measuredResult: 5.61

# evaluate next
Reported pIC50 of Cc1ccc(Oc2ccc(Nc3ncnc4cc5c(nc34)N3CCN(C(=O)/C=C/CN(C)C)C(CO5)C3)cc2C)cn1 (stereo in doubt) [Compound 21] : 6.21

----------
log10 of IC50 for assorted compounds
Target: phosphorylated ERBB2 (pERBB2) (Homo sapiens (Human), UniProt P04626)
Sequence (P04626 23-1255): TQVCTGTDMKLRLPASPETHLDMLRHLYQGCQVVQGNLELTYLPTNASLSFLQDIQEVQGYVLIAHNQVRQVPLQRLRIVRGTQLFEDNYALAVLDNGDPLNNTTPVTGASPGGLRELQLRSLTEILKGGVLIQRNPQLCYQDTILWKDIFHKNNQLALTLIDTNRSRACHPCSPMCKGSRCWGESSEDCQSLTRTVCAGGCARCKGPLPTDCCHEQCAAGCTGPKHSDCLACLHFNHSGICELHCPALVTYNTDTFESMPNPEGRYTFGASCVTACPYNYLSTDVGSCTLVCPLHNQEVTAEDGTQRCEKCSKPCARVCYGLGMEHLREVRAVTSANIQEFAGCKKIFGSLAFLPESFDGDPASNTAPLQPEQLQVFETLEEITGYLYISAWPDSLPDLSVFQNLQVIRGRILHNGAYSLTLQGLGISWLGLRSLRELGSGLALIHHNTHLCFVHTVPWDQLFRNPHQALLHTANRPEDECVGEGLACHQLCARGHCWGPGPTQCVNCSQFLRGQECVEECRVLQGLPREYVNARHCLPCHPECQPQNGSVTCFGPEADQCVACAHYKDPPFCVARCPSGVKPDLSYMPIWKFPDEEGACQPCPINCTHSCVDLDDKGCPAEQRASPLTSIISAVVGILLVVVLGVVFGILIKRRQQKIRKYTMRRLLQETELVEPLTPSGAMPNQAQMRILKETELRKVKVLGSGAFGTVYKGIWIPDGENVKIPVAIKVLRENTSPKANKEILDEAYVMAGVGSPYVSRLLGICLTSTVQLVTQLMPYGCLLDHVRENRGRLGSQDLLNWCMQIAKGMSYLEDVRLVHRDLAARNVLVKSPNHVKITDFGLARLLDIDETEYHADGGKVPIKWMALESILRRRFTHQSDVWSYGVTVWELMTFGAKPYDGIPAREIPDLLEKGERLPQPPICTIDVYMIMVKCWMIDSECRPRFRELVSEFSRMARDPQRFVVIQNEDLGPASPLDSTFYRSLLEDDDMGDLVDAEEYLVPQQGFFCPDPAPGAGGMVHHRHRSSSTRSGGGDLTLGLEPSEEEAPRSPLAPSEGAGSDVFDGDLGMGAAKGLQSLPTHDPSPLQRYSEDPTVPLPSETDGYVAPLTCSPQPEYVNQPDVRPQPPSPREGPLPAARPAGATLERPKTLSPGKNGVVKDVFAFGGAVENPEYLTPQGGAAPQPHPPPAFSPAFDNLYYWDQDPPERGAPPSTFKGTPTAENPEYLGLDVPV
Assay: Detection of phosphorylated ERBB2 (pERBB2) by ELISA in BT-474 cells
Conditions: four hours incubation with compound
On a log10 scale: recorded IC50, unit µM.

Reference set, count: 3
compound: CC#CC(=O)N1CCN2CC1COc1cc3ncnc(Nc4ccc(Oc5ccn6ncnc6c5)c(C)c4)c3cc12 (stereo in doubt) [Compound 12]
log10 of IC50: -1.37
--
compound: C=CC(=O)N1CCN2CC1COc1cc3ncnc(Nc4ccc(Oc5ccn6ncnc6c5)c(C)c4)c3nc12 (stereo in doubt) [Compound 1]
log10 of IC50: -2.01
--
compound: CC#CC(=O)N1CCN2CC1COc1cc3ncnc(Nc4ccc(Oc5ccc6c(c5)ncn6C)c(C)c4)c3cc12 (stereo in doubt)
log10 of IC50: -0.99

Reported log10 of IC50 of C=CC(=O)N1CCN2CC1COc1cc3ncnc(Nc4ccc(Oc5ccn6ncnc6c5)c(C)c4)c3nc12 (stereo in doubt) [Compound 2] : -0.37

Reported log10 of IC50 of Cc1cc(Nc2ncnc3cc4c(nc23)N2CCN(C(=O)/C=C/[C@@H](C)N(C)C)C(CO4)C2)ccc1Oc1ccn2ncnc2c1 (stereo in doubt) : -1.77

Origin of measurements: patent US20230382923A1
